Attribute: binding relative to wild-type Fc
Biological target: T1, CD32B (FcγRII-B) (UniProt P31994 43-217, limits assumed)
T1 sequence (looked up): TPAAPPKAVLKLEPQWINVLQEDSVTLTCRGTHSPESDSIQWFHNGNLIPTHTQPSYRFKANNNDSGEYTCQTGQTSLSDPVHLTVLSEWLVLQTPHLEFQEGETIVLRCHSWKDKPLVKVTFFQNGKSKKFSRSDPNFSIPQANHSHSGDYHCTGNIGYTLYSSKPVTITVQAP
Assay: method not stated at Table 3

INSERT INTO results (binder, measured) VALUES
  ('Fc variant D270E P396L Q419H (other, UniProt P01857-1 104-330, looked up, domain: Fc) DKTHTCPPCPAPELLGGPSVFLFPPKPKDTLMISRTPEVTCVVVDVSHEEPEVKFNWYVDGVEVHNAKTKPREEQYNSTYRVVSVLTVLHQDWLNGKEYKCKVSNKALPAPIEKTISKAKGQPREPQVYTLPPSRDELTKNQVSLTCLVKGFYPSDIAVEWESNGQPENNYKTTPLVLDSDGSFFLYSKLTVDKSRWQHGNVFSCSVMHEALHNHYTQKSLSLSPGK', '0.68 fold'),
  ('Fc variant R255L D270E Y300L P396L (other, UniProt P01857-1 104-330, looked up, domain: Fc) DKTHTCPPCPAPELLGGPSVFLFPPKPKDTLMISLTPEVTCVVVDVSHEEPEVKFNWYVDGVEVHNAKTKPREEQYNSTLRVVSVLTVLHQDWLNGKEYKCKVSNKALPAPIEKTISKAKGQPREPQVYTLPPSRDELTKNQVSLTCLVKGFYPSDIAVEWESNGQPENNYKTTPLVLDSDGSFFLYSKLTVDKSRWQQGNVFSCSVMHEALHNHYTQKSLSLSPGK', '0.87 fold');

Could you now look at the following binder, please?
Q: Look up binding relative to wild-type Fc for this binder: Fc variant D270E K392T P396L (other, UniProt P01857-1 104-330, looked up, domain: Fc) DKTHTCPPCPAPELLGGPSVFLFPPKPKDTLMISRTPEVTCVVVDVSHEEPEVKFNWYVDGVEVHNAKTKPREEQYNSTYRVVSVLTVLHQDWLNGKEYKCKVSNKALPAPIEKTISKAKGQPREPQVYTLPPSRDELTKNQVSLTCLVKGFYPSDIAVEWESNGQPENNYTTTPLVLDSDGSFFLYSKLTVDKSRWQQGNVFSCSVMHEALHNHYTQKSLSLSPGK
Ans: 0.79 fold

Hey, just so you know, these numbers are from patent US20240131162A1.
